system: 786-0 renal; assay: NCI tumour cell line growth inhibition, 48 h; in the data active = GI50 below about 0.43 µM; inactive = the rest
// classify into active, inactive

Use these answered entries as a reference point.
O=C(Nc1nc2c(C(F)(F)F)cccc2s1)c1cc(Cl)ccc1O: active
CCC[CH2][Sn]1([CH2]CCC)[O]C(=O)c2cccc([N+](=O)[O-])c2C(=O)[O]1: inactive
CCOC(=O)C1=C(Nc2ccc(OC)cc2)C(N)=NC1=N: inactive
COc1cc2ncnc(Oc3ccc(NC(=O)Nc4ccc(CN5CCOCC5)c(C(F)(F)F)c4)c4ccccc34)c2cc1OC: inactive
C[C@@H]1CC[C@@H]2[C@@H]1[C@H](OC(=O)/C=C/C1CCCCC1)[C@]1(C3CCCCC3)C[C@@H](OC(=O)CO)[C@@]2(C)O1: inactive
COc1cccc(N2CC(O)=C(c3nc4ccccc4s3)C2=N)c1: active

Recorded call for CN(C(=O)C(C)(C)C)c1ccccc1I(=O)=O ?
inactive

----------
Let's look at some molecules and their measured TGI.
tested on: HOP-92 NSCLC; test: NCI tumour cell line growth inhibition, 48 h
Write it as a number; the unit µM goes unstated.

// below: answered molecules
CC1(C)C2CC3C(C)(C2)C31c1cc(Cl)ccc1N (stereo unspecified): 28.6
CCCCCCCCCCCC(=O)N(CCCCCCCCC)CC(O)C(O)C(OC1OC(CO)C(O)C(O)C1O)C(O)CO (stereo unspecified): 34.4
COCC(C#N)NC1CC(OC2CC(O)(C(=O)CO)Cc3c(O)c4c(c(O)c32)C(=O)c2c(OC)cccc2C4=O)OC(C)C1O (stereo unspecified): 5
C=C1C(=O)O[C@@H]2/C=C(/C)[C@@H](OC(C)=O)C[C@@H](O)/C(C)=C\[C@@H](OC(=O)[C@]3(C)O[C@@H]3C)[C@@H]12: 26.7
CCOc1ccccc1N=NC1C(=O)N(C(=O)CC(=O)Nc2ccccc2C)N=C1C (stereo unspecified): 40.8
N=C1C=CC(=C(c2ccc(N)cc2)c2ccc(N)cc2)C=C1: 12.7

API: value(readout=TGI, system=HOP-92 NSCLC) for record NC(=Nc1ccccc1)N/N=C/c1c[nH]c2ccccc12
6.01

Continue with CCC[CH2][Sn]1([CH2]CCC)[O]C(=O)c2cccc([N+](=O)[O-])c2C(=O)[O]1
1.66

Also check OC(c1cc(C(F)(F)F)nc2c(Cl)cc(Cl)cc12)C1CCCCN1 (stereo unspecified)
21.9

Another molecule: N#C/C(=C\c1ccc[nH]1)c1cc(-c2ccc(Cl)cc2)nn1-c1ccccc1
10.2

Do the same for CC1Cc2c(Cl)ncnc2N(C)c2ccccc21 (stereo unspecified) please
7.17

Try this molecule too: CC(NNC(=S)N1CCN(c2ccccn2)CC1)c1nccc2ccccc12 (stereo unspecified)
7.79

----------
system: TK-10 renal; assay: NCI tumour cell line growth inhibition, 48 h
Here the recorded TGI is given for each entry.

Below are worked cases with known answers.
COc1ccc2c3ccnc(C(F)(F)F)c3n(CCCCN)c2c1: 19.3 µM
CC(C)N1CC2CC(CN(C(=O)c3ccc(Cl)cc3)C2)C1: > 100 µM
CCOc1ccccc1N=NC1C(=O)N(C(=O)CC(=O)Nc2ccccc2C)N=C1C (stereo not drawn): > 100 µM
N#Cc1c(/C=C/c2ccccc2)c2c([nH]c1=S)CCCCC2: > 100 µM
Cc1ccc(/C=C2\CCCCC2=O)cc1: > 100 µM
CC(=O)/C=C(/C)[O-].CC(=O)/C=C(/C)[O-].CC(=O)[CH-]C(C)=O.CC(=O)[CH-]C(C)=O.[Zr+4]: > 100 µM
C=CCC1(CN(C)C)CC/C(=C\c2ccc3c(c2)OCO3)C1=O (stereo not drawn): > 100 µM
Cc1ccc2ccccc2c1CSc1nc(N)nc2c1ncn2CC(C)C: > 100 µM
N=C(N)SCc1nc(-c2ccc(Cl)cc2)no1: 40.8 µM
COc1cc(/C=C2\[C@@H]3NC(Cc4c(OC)c(C)c(OC)c(OC)c43)C(=O)N2Cc2ccccc2)c(OC)c(C)c1OC: > 100 µM

Need TGI of COc1cc2c(cc1OCC(=O)Nc1ccc(Cl)cc1C(=O)c1ccccc1Cl)N=CC1CCCN1C2=O (stereo not drawn) , thanks.
25.1 µM

# iterate: CC(C)(C)NCC(O)c1ccccc1Cl (stereo not drawn)
> 100 µM

Now give it for C/C(=N\N=C(N)N)C(CN1CCOCC1)C(c1ccccc1)c1c(O)c2ccccc2oc1=O (stereo not drawn) too.
> 100 µM

Same for Nc1nc(N)c2c(ccc3c2ccn3Cc2cccc([N+](=O)[O-])c2)n1
2.67 µM

----------
system: SK-OV-3 ovarian; assay: NCI tumour cell line growth inhibition, 48 h
Listed here are molecules together with their documented GI50.

CC1=CC2(C)/C=C(C)/C=C\CC(O)/C=C3/C=CC(=C4C(=O)OC2(CC1C)C4=O)OC3 (centres undefined): 19.4 µM
CCN1CCN(c2ccc(NC(=O)Nc3nc4ccc(-c5ccccc5OC)cc4s3)cc2)CC1: 1.79 µM
O=C(Nc1cccc([N+](=O)[O-])c1)c1cccc(C(=O)Nc2cccc([N+](=O)[O-])c2)c1: 13 µM

GI50 for COC(=O)[C@]1(C)CCC[C@@]2(C)C3=C(CC[C@H]12)C[C@@H](CC(OC(C)=O)OC(C)=O)[C@@H](C)C3 ?
20.7 µM

----------
Overview of reported TGI across a group of compounds:
test system: SF-268 CNS; assay: NCI tumour cell line growth inhibition, 48 h

Solved entries:
COc1cc2c3c(n(C)c(=O)c2cc1OC)-c1cc2c(cc1/C3=C\CCCCl)OCO2: > 100 µM
Cc1cnc2c(c1)C(=O)N(c1ccc(Oc3ccccc3)cc1)S2(=O)=O: > 100 µM
Nc1ccc(C#Cc2ccccc2C#CCCCCO)cc1: 40.4 µM
O=C1CCC2(O)c3ccccc3C2Cc2ccccc21 (stereo not drawn): > 100 µM
COc1cc2ncnc(Oc3ccc(NC(=O)Nc4ccc(CN5CCOCC5)c(C(F)(F)F)c4)c4ccccc34)c2cc1OC: 8.94 µM

Given the entry OC1OCC(COc2cc(Cl)c(Cl)cc2Cl)OC1O (stereo not drawn) , report its measured TGI.
> 100 µM

Next up: CCOP(=O)(OCC)C(Nc1ccc(Cl)cc1)c1ccc(F)cc1 (stereo not drawn)
61.2 µM

Field entry: CC(=O)OC1CC2(C)C(=CC1C1SCCS1)CCC1C2CCC2(C)C(OC(C)=O)CCC12 (stereo not drawn)
> 100 µM

----------
tested on: MCF7 breast; assay: NCI tumour cell line growth inhibition, 48 h
Each entry below lists one item and its recorded GI50 value.

Return reported GI50; argument: O=C(Nc1ccc(Cl)c(Cl)c1)c1ccc(NC2=C(Cl)C(=O)N(Cc3ccccc3)C2=O)cc1
2.1 µM

Now consider CCC[CH2][Sn]1([CH2]CCC)[O]C(=O)c2cccc([N+](=O)[O-])c2C(=O)[O]1 .
0.244 µM

Another compound to look at: CCN1CCN(C(=O)[C@]23CC[C@@H](C)[C@H](C)[C@@H]2C2=CC[C@@H]4[C@@]5(C)CCC(=O)C(C)(C)[C@@H]5CC[C@@]4(C)[C@]2(C)CC3)CC1
0.891 µM

And for CC1Cc2c(Cl)ncnc2N(C)c2ccccc21 (stereo not given) ?
3.17 µM

How about COc1cc2ncnc(Oc3ccc(NC(=O)Nc4ccc(CN5CCOCC5)c(C(F)(F)F)c4)c4ccccc34)c2cc1OC ?
0.363 µM

----------
This section presents compounds with their documented TGI values.
system: BT-549 breast; assay: NCI tumour cell line growth inhibition, 48 h

Worked examples follow.
COc1cc(OC)c(/C=C/C(=O)c2c(OC)cc(OC)cc2OC)c(OC)c1: > 24.5 µM
CC(C)[C@@H](C(=O)O[C@@H]1/C=C/C(=O)O[C@@H](C)CCC/C=C/[C@@H]2C[C@H](O)C[C@H]21)N(C)C: 32 µM
COC(=O)NC(Cc1ccccc1)NC(=O)OC(C)(C)C (centres undefined): > 100 µM
CC(=O)C(CN1C(=O)c2ccccc2C1=O)C(C)=O: > 100 µM
N=c1ncn(C/C=C/c2ccccc2)c2nc[nH]c12: > 100 µM

Could you now look at the following compound, please?
Given the compound O=c1oc2ccccc2c(O)c1C(c1ccc(OCc2ccccc2)cc1)c1c(O)c2ccccc2oc1=O , what is its reported TGI?
61.8 µM

----------
tested on: SK-MEL-28 melanoma; assay: NCI tumour cell line growth inhibition, 48 h
Measure name: TGI

Reference set (2 entries):
COc1ccc(/C(=N/O)c2ccccc2C2=Nc3ccccc3C(NCc3ccccc3)O2)cc1C (stereo not drawn): > 100 µM
Cc1ccc2ccccc2c1CSc1nc(N)nc2c1ncn2CC(C)C: > 100 µM

# query: TGI | item C=C(C)C1(Sc2ccc(OC)cc2)CC1 | system: SK-MEL-28 melanoma
> 100 µM

Could you do the same for COc1cc(C(c2ccccc2)N2C(=O)CC[C@H]2C(=O)O)cc(OC)c1OC (stereo partly drawn) , please?
> 100 µM

Next: CN1C(=O)N(C)C2C1NC(=S)N2/N=C/C=C/c1ccccc1[N+](=O)[O-] (stereo not drawn)
> 100 µM

Try this compound too: O=C1CCCC1CC(CN1CCOCC1)Sc1nnnn1-c1ccccc1 (stereo not drawn)
> 100 µM

Note, next up: O=C1OC(OC/C(Br)=C(\Br)COC2OC(=O)C(Cl)=C2Cl)C(Cl)=C1Cl (stereo not drawn)
22.1 µM

One more compound: CCCCCc1cc2cc3c(c(O)c2c(=O)[nH]1)C1(CCC3)C(=O)c2c(O)ccc(O)c2C1=O
> 100 µM

Then what about the compound C/C(=N\N=C(N)N)C(CN1CCOCC1)C(c1ccccc1)c1c(O)c2ccccc2oc1=O (stereo not drawn) ?
> 100 µM

One more compound: CN(C)C(=O)N1N[C@H](c2ccccc2)[C@@H]1c1ccccc1
> 100 µM

Same lookup for CCOP(=O)(OCC)C(Nc1ccc(Cl)cc1)c1ccc(F)cc1 (stereo not drawn) , please.
41.7 µM

Another compound to look at: CC(=O)C(CN1C(=O)c2ccccc2C1=O)C(C)=O
> 100 µM

How about Cn1nc(C(F)(F)F)cc1-c1cc(Cl)c(OCc2ccc(Cl)cc2)c(-c2ccc(Cl)c(C(F)(F)F)c2)c1O ?
3.53 µM

Continue with CC(=O)NC1C(OCc2ccccc2)OC(CO)C(O)C1OC(C)C(=O)NC(C(=O)NC(CCC(=O)NCCCNc1ccc([N+](=O)[O-])c2[nH]c3ccccc3c(=O)c12)C(N)=O)C(C)C (stereo not drawn)
> 100 µM
